# ASSAY_NOTES: yeast display, Sf9 membrane polyspecificity reagent, FACS + sequencing; frameworks hold sequencing errors
MEASURED_QUANTITY: polyreactivity (PSR sort gate)

QVQLVESGGGLVQAGGSLRLSCAASGRTFGRYVMGWYRQAPGKERELVSAISKGGTSTYYADSVKGRFTISRDNAKNTVYLQMISLKPVVTAVYYCAAGSFARYTYVPRYDYWGQGTQVTVSS
high polyreactivity
QVQLVESGGGLVQAGGSLRLSCAASGSIFTIYAMGWYRQAPGKERELVAAITRSGGSTSYADSVKGRFTISRDNAKNTVYLQMNSLKPEDTAVYYCNKDLNFAKYISSILYDYWGQGTQVTVSS
low polyreactivity
QVQLVESGGGLVQAGGSLRLSCAASGSTFYYYAMGWYRQAPGKERELVAAINDSGDRTYYADSVKGRFTISRDNAKNNVYLQMNSLKPEDTAVYYCAADLVSLDPEYDYWGQGTQVTVSS
low polyreactivity
QVQLVESGGGLVQAGGSLRLSCASSGFIFHTYAMGWYRQAPGKERELVAAISGGTSSTYYADSVKGRFTISRDNAKNTVYLQMKSLKPEDTAVYYCAARSRRGGYPRYFYWGQGTQVTVSS
high polyreactivity

====

# ASSAY_NOTES: yeast display, Sf9 membrane polyspecificity reagent, FACS + sequencing; frameworks hold sequencing errors
MEASURED_QUANTITY: polyreactivity (PSR sort gate)

QVQLVESGGGLVQAGGSLRLSCAASGRIFRYYAMGWYRQAPGKERELVAAITWRGSSTYYADSVKGRFTISRDNAKNTVYLQMNSLKPEDTAVYYCNKLRSPHGYIRPGYDYWGQGTQVTVSS
high polyreactivity
QVQLVESGGGLVQAGGSLRLSCAASGIILTVYAMGWYRQAPGKERELVATISRRGGNTYYADSVKGRFTISRDNAKNTVYLQMNSLKPEDTAVYYCNKAYQYGGYYYWGQGTQVTVSS
high polyreactivity
QDQLVESGGGLVQAGGSLRLSCAASVITFVRNAKGWYRQAPGKERELVAAMSGRGGITYYADSVKGRFTISRDNAKNTVYLQMNSLKPEDTAVYYCAASSAGSSYNYWGQGTQVTVSS
high polyreactivity

====

# ASSAY_NOTES: yeast display, Sf9 membrane polyspecificity reagent, FACS + sequencing; frameworks hold sequencing errors
MEASURED_QUANTITY: polyreactivity (PSR sort gate)

Completed entries (count: 5):
QVQLVESGGRLVQAGGSLRLTCAASGFIFKTNGMRWYRKAPGKERELVAAITSRGGSTYYADSVKGRFTISRDNAKNNVYLQMNSLKPEDTAVYYCAARGSRYTDYDYWGQGTHVTVSS
high polyreactivity
QVQLVESGGCLVQAGGSLRLSCAASGSIFTKYTMGWYRQAPGRERELVAAITLRGTSTYYADSVKGRFTISRDIAKNTVYLQMNSLKPEDTAVYYCNKLYSWVVAYDYWGQGTQVTVSS
high polyreactivity
QVQLVESGGGLVQARGSLRLSCAASGFTFRSYTMGWYRQAHGKERELVAAITSRGTSTYYADSVKGRFTISLDNAKNTVYLQMNSLKPEDTAVYYCAAPIYNGYASWQVYYWGQGTQVTVSS
high polyreactivity
QVQLVESGGGLVQAGGSLRLTCAASGFIFEEYAKGWYRPAPGKERELVAAISRRGGSTYYADSVKGRFTISRDNATNTVYLQMNSLKPEDTAVDYCATDRRYNYWGQGTQVTVSS
high polyreactivity
QVQLVESGGGLVQAGGSLRLSCAASGRIFQYSAMGWYRQAPGKEREFVASITFRGGRTNYADSVKGRFTISRDNAKNTVYLQMNSLKPEDTAVYYCAVSLRRGGSGYAYDYWGQGTQVTVSS
high polyreactivity

INPUT: Which polyreactivity (PSR sort gate) value is on record for QVQLVESGGGLVQAGGSLRLSCADSGFTFTYYAMGWYRQAPGKERELVAGITRSGGSTYYADSVKGRFTISRDTAKNTVYLQMNSLKPEDTAVYYCAVKFVRYRQGIVLYDYWGQGTQVTVSS ?
OUTPUT: high polyreactivity

INPUT: Note, next up: QVQLVESGGGLVQAGGSLRLSCAASGFTFRYYAMGWYRQAPGKERELVAAISAGGSTYYADSVKGRFTISRDNAKNTVYLQMNSLKQEDTAVYYCTARYQGFVITYYYWGQGTQVTVSS
OUTPUT: high polyreactivity

INPUT: Okay, and QVQLVESGGGLVQAGGSLRISCAASGRTFCNNAMGWYRQAPGKERELVAAITSTGSRTYYADSVKGRFTISRDNAKNTVYLQMNSLKPEDTAVYYCNRVSHLDYYWGQGTQVTVSS ?
OUTPUT: high polyreactivity

INPUT: Please give the result for QVQLVESGGGLVQAGGSLRLSCAASGRIFARNAMGWYRQAPGKESELVAAITSSGSTYYADSVKGRFTISRDNAKNSVYLQMNSLKPEDTAVYYCAADGHAYRSNFWGQGTQVTVSS too.
OUTPUT: low polyreactivity

INPUT: Please do the same for QVQLVESGGGLVQAGGSLRLSCAASGSTFYSYAMGWYRQAPGTERELVAAITSRGDRTYYADSVKGRFTISRDNAKNTVYLQMNSLKPEDTAVYYCAAEQSWQGYAYYYWGQGTQVTVSS as well.
OUTPUT: high polyreactivity

INPUT: Moving on to QVQHVESGGCLDQAGGSLRLSCAASGIFRTNARGWYRTAPGKERELVAGISSGGGTNYADSVKGRFTISRDNAKNTVYLQMNSLKPEDTAVYSCAKERIYFYYWYVYSDLVYEYDYCGQGTQVTVSS
OUTPUT: low polyreactivity
